Attribution: patent US11884627B2

biological target: human LPA1 (Homo sapiens); construct: expressed in transfected cells; host or cells: CHO-K1; experiment: In vitro LPA1 calcium flux antagonist assay - Bioduro protocol; assay type: cell-based; settings: CHO-K1 cells overexpressing human LPA1 and G15a; LPA challenge at EC80; calcium mobilization on FLIPR Tetra; read-out: IC50
Sequence (Q92633 whole entry): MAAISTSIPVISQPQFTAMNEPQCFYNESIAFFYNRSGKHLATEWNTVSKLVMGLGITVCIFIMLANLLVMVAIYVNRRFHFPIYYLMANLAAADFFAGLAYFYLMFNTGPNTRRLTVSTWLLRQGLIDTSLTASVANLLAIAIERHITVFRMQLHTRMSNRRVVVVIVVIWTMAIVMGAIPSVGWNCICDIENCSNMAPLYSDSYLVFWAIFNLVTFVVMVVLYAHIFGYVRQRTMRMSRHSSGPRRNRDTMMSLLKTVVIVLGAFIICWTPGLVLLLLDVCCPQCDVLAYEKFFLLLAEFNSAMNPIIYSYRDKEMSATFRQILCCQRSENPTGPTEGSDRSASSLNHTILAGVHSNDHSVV
QUANTITY_NAME: IC50 (nM)
Give the quantity in nM, number only.

Recorded result, CCOc1cccc(-c2ccc(OC3(C(=O)O)CCC3)cc2COC2CC2)c1C(F)F , IC50: 24.3

Recorded result, CCOc1c(F)ccc(-c2ccc(NC3(C(=O)O)CCOCC3)cc2COC2CCCC2)c1F , IC50: 142

Recorded result, COc1cc(-c2ccc(NC3(C(=O)O)CCOCC3)cc2COC2CCCC2)c(F)c(OC)c1C(C)O (stereo not shown) [Compound 300] , IC50: 35.3

Recorded result, CCCCOCc1cc(NC2(C(=O)O)CCOCC2)ccc1-c1cncc(OCC)c1C(F)F , IC50: 13

Recorded result, COCC1CC(Nc2ccc(-c3cc(OC)c(C)c(OC)c3)c(COC3Cc4ccccc4C3)c2)(C(=O)O)C1 (stereo not shown) , IC50: 53.8

Recorded result, COc1cc(-c2ccc(NC3(C(=O)O)CC(F)(F)C3)cc2COC2Cc3ccccc3C2)cc(OC)c1C , IC50: 57

Recorded result, CCOc1cc(-c2ccc(NC3(C(=O)O)CCOCC3)cc2COC2CC2)cc(OC)c1C , IC50: 61.9

Recorded result, COc1cc(-c2ccc(OC3(C(=O)O)CCOCC3)cc2CO[C@H]2CCOC2)c(F)c(OC)c1C , IC50: 110
